Data provenance: patent US20250215029A1

Target: Recombinant STAT6 protein (STAT6 (W123-T658)) (Homo sapiens)
Construct: Recombinant STAT6 protein (STAT6 (W123-T658))
Test: STAT6 Fluorescence Polarization (FP) Assay
Assay type: binding
Conditions: STAT6 (W123-T658) 250 nM, probe 5-FAM-Ap[…]-NH2 2 nM, 45-minute incubation; read-out: STAT6 (FP assay IC50 class)
Field: IC50. Provide a value for each of the molecules that follow.

q: Query (molecule): Cn1ncc(F)c1C1CN(C(=O)[C@@H]2CC[C@@H]3CCC[C@H](NC(=O)c4cc5cc(C(F)P(=O)(O)O)ccc5s4)C(=O)N32)C1 (stereo partly drawn) ; field requested: IC50
a: 3 to 30 µM

q: And O=C(N[C@H]1CCC[C@H]2CC[C@@H](C(=O)N3CC(c4cccnc4)C3)N2C1=O)c1cc2cc(CP(=O)(O)O)ccc2[nH]1 ?
a: 3 to 30 µM

q: And N#CC1(c2ccccn2)CN(C(=O)[C@@H]2CC[C@@H]3CCC[C@H](NC(=O)c4cc5cc(C(F)(F)P(=O)(O)O)ccc5s4)C(=O)N32)C1 ?
a: 0.3 to 3 µM

---

Field: pIC50. Provide a value for each of the compounds that follow.
Molecular target: Recombinant STAT6 protein (STAT6 (W123-T658)) (Homo sapiens)
Construct: Recombinant STAT6 protein (STAT6 (W123-T658))
Sequence (P42226 123-658): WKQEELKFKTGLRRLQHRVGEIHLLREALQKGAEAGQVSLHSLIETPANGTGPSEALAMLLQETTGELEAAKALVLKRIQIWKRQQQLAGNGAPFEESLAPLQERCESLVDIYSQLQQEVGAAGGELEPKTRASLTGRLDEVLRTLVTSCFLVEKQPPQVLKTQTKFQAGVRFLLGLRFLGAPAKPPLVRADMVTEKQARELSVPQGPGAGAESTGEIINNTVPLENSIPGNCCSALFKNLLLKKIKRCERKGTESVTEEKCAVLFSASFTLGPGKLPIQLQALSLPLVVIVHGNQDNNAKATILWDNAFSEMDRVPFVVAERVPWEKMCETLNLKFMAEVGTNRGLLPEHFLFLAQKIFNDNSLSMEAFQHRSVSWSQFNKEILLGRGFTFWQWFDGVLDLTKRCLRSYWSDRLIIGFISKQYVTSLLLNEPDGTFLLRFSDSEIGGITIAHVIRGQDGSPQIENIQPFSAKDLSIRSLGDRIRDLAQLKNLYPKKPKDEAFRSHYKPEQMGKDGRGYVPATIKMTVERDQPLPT
Test: STAT6 Fluorescence Polarization (FP) Assay
Type: binding
Conditions: STAT6 (W123-T658) 250 nM, probe 5-FAM-ApYKPFQDLI-NH2 2 nM, 45-minute incubation; read-out: STAT6 (FP assay IC50 class)
pIC50: −log10 of the molar value.

q: API: value(readout= pIC50, system= Recombinant STAT6 protein (STAT6 (W123-T658)) (Homo sapiens), query= O=C(N[C@H]1CCCC[C@H]2CC[C@@H](C(=O)N3C[C@@H](c4ccccc4)CC34CC4)N2C1=O)c1cc2cc(C(F)(F)P(=O)(O)O)ccc2s1 (single isomer, unassigned) )
a: ≥ 6.52

q: And C[C@@H]1[C@@H](c2cccnc2)CN1C(=O)[C@@H]1CC[C@@H]2CCC[C@H](NC(=O)c3cc4cc(C(F)P(=O)(O)O)ccc4s3)C(=O)N21 (stereo partly shown) ?
a: 4.52 to 5.52

q: And N#C[C@@H]1[C@@H](c2cccnc2)CN(C(=O)[C@@H]2CC[C@@H]3CCCC[C@H](NC(=O)c4cc5cc([C@H](F)P(=O)(O)O)ccc5s4)C(=O)N32)C12CC2 (single isomer, unassigned) ?
a: ≥ 6.52

q: And CC(C)[C@@H]1CC[C@H](NC(=O)c2cc3cc(C(F)P(=O)(O)O)ccc3s2)C(=O)N2[C@H](CC[C@H]2C(=O)N2C[C@H](c3ccccc3)[C@@H](C#N)C2)C1 (single isomer, unassigned) ?
a: ≥ 6.52

---

Molecular target: Recombinant STAT6 protein (STAT6 (W123-T658)) (Homo sapiens)
Construct: Recombinant STAT6 protein (STAT6 (W123-T658))
Sequence (P42226 123-658): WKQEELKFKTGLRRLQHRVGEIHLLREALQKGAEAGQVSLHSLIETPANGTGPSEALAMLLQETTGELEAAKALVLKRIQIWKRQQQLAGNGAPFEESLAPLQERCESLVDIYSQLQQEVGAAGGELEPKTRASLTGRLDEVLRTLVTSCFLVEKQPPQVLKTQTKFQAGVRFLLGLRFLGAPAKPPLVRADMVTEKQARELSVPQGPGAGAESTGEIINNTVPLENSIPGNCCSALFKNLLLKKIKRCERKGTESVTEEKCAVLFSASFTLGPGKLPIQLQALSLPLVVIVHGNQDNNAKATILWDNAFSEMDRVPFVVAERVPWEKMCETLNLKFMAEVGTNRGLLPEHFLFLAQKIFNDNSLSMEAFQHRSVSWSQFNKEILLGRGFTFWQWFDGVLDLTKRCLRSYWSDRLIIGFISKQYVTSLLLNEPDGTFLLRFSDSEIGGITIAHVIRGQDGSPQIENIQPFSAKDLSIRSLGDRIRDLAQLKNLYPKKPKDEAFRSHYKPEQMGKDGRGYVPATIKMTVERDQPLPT
Test: STAT6 Fluorescence Polarization (FP) Assay
Format: binding
Settings: STAT6 250 nM, probe 5-FAM-Ap[…]-NH2 2 nM, 45-minute incubation; read-out: STAT6 (FP assay IC50)
Protocol: STAT6 Fluorescence Polarization (FP) Assay An FP assay was developed to determine IC50 values for test substances. […] Reaction components were mixed, and FP was measured after 45-minute incubation at room temperature using a Tecan Spark multimode plate reader. FP signal (mP) was plotted against the log concentration of the test substances and IC50 values were calculated by nonlinear regression analysis using GraphPad Prism software. […]
MEASUREMENT TYPE: IC50

q: Query (compound): C[C@@]1(O)CC[C@H]2CC[C@@H](C(=O)N3C[C@H](c4ccccc4)[C@@H](C#N)C3)N2C(=O)[C@@H](NC(=O)c2cc3cc(C(F)(F)P(=O)(O)O)ccc3s2)C1 (single isomer, unassigned) [Compound 14] ; field requested: IC50
a: ≤ 300 nM

q: And N#CCC1CN(C(=O)[C@@H]2CC[C@@H]3CCC[C@H](NC(=O)c4cc5cc(C(F)(F)P(=O)(O)O)ccc5s4)C(=O)N32)C1 [Compound 50] ?
a: 300 to 3000 nM

q: And Cn1nccc1C=C1CN(C(=O)[C@@H]2CC[C@@H]3CCCC[C@H](NC(=O)c4cc5cc(C(F)(F)P(=O)(O)O)ccc5s4)C(=O)N32)C1 [Compound 69] ?
a: 300 to 3000 nM

---

Target: pY705-STAT3 in PBMC (Homo sapiens, UniProt P40763)
Construct: Cryopreserved Peripheral Blood Mononuclear Cells (PBMC) are from AllCells; host or cells: cryopreserved PBMC
Sequence (P40763 whole entry): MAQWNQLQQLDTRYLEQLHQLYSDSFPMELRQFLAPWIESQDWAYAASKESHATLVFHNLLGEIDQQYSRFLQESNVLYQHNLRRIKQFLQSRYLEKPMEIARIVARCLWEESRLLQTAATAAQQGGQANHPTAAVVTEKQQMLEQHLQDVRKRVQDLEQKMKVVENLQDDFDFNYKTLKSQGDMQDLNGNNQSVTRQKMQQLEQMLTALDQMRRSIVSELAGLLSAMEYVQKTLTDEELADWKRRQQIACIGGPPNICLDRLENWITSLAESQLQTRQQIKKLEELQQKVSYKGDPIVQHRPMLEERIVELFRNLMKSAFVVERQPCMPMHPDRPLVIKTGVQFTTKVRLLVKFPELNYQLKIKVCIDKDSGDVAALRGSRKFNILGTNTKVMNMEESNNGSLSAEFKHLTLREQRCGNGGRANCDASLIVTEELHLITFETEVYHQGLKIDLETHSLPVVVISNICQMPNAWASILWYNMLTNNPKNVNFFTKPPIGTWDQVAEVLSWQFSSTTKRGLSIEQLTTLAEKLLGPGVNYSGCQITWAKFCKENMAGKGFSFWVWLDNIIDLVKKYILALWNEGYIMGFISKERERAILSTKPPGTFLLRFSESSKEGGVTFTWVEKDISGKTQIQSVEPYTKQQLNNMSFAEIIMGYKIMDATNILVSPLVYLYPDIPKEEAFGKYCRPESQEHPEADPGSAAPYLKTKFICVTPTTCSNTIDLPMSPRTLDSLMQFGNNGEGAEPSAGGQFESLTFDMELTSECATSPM
Assay: MSD-pSTAT-PBMC Assay (pSTAT3, IL-6 stimulated)
Assay type: cell-based
Details: PBMC, compound 3 hrs, then 10 ng/mL IL-6 for 10 min; Table 115; read-out: STAT3
pIC50: −log10 of the molar value.
Field: pIC50. Provide a value for each of the compounds that follow.

q: Query (compound): CCCOC(=O)[C@H](C)NP(=O)(Cc1ccc2sc(C(=O)N[C@H]3CCC[C@H]4CC[C@@H](C(=O)N5CC(c6cnccc6OC)C5)N4C3=O)cc2c1)Oc1ccccc1 (stereo partly drawn) ; field requested: pIC50
a: > 7.00

q: And CCCOC(=O)[C@H](C)NP(=O)(Cc1ccc2sc(C(=O)N[C@H]3CCC[C@H]4CC[C@@H](C(=O)N5CC(c6cnc(F)cc6OC)C5)N4C3=O)cc2c1)Oc1ccccc1 (stereo partly drawn) ?
a: 6.00 to 7.00

q: And CCCOC(=O)[C@H](C)NP(=O)(Cc1ccc2ccc(C(=O)N[C@H]3CCCC[C@H]4CC[C@@H](C(=O)N5C[C@H](c6cc[nH]c(=O)c6)CC56CC6)N4C3=O)cc2c1)Oc1ccccc1 (stereo partly drawn) ?
a: < 5.52

q: And CCCOC(=O)[C@H](C)NP(=O)(Oc1ccccc1)[C@H](F)c1ccc2sc(C(=O)N[C@H]3CCC[C@H]4CC[C@@H](C(=O)N5CC(c6cnccc6N(C)C)C5)N4C3=O)cc2c1 (single isomer, unassigned) ?
a: > 7.00

q: And CCCOC(=O)[C@H](C)NP(=O)(Oc1ccccc1)[C@H](F)c1ccc2sc(C(=O)N[C@H]3CCCC[C@H]4CC[C@@H](C(=O)N5C[C@H](c6ccccc6)[C@@H](C#N)C56CC6)N4C3=O)cc2c1 (stereo partly drawn) ?
a: < 5.52

q: And COCCOC(=O)[C@H](C)NP(=O)(Cc1ccc2sc(C(=O)N[C@H]3CCC[C@H]4CC[C@@H](C(=O)N5CC(c6cccnc6)C5)N4C3=O)cc2c1)Oc1ccccc1 (stereo partly drawn) ?
a: 6.00 to 7.00

q: And CCCOC(=O)[C@@H]1CCCN1P(=O)(Cc1ccc2sc(C(=O)N[C@H]3CCC[C@H]4CC[C@@H](C(=O)N5CC(c6cccnc6)C5)N4C3=O)cc2c1)N1CCC[C@H]1C(=O)OCCC ?
a: 6.00 to 7.00

q: And CCCOC(=O)[C@H](C)NP(=O)(Oc1ccccc1)C(F)c1ccc2sc(C(=O)N[C@H]3CCC[C@H]4CC[C@@H](C(=O)N5CC6(C5)OCc5ccncc56)N4C3=O)cc2c1 (stereo partly drawn) ?
a: 6.00 to 7.00

q: And CCCOC(=O)[C@H](C)NP(=O)(Oc1ccccc1)[C@@H](F)c1ccc2sc(C(=O)N[C@H]3CCC[C@H]4CC[C@@H](C(=O)N5CC(c6cncnc6N6CC[C@H]6COC)C5)N4C3=O)cc2c1 (stereo partly drawn) ?
a: > 7.00
